Tested on: Epithelial cells
measurement.notes: Interaction of GFP-labelled complexes with cell membrane of epithelial cells (Example II-52, Table II-30)
Type: cell-based
test.context: 24 Hours after medium replaced; GFP-labelled complex, epithelial cells pretreated 4 hours, n=3
Protocol: The fatty acids were combined with water-soluble small molecules to form a complex, which were labeled with GFP fluorescence to detect cell membrane fluorescence. […] After the cells were stably adhered, the water-soluble fatty acid complexes in the following table were added to the cell culture medium. […] The medium with the drug was pipetted and replaced with normal DMEM medium. […] The green fluorescence intensity was analyzed by imageJ (see Table II-30, n=3).
Classification by Mean fluorescence intensity | ranges: range 1 = under 30, range 2 = from 30 up to 40, range 3 = 40 and over

// return the class label for Nc1ncnc2c1ncn2[C@@H]1O[C@H](COP(=O)(O)O)[C@@H](O)[C@H]1O.O=C(O)/C=C/C(=O)O [Adenosine monophosphate-fumaric acid]
range 2

Which category does the recorded Mean fluorescence intensity put NC(CCCCNC(=O)CCCCCCCCCCCC(=O)O)C(=O)O (stereo not drawn) in?
range 3

Looking at CCCCCCCCC(=O)OCC(O)C1OC(=O)C(O)=C1O (stereo not drawn) , which class would you pick?
range 2

Pick a category. Item: CCC=CCC=CCC=CCC=CCC=CCCCC(=O)NCCCCC(N)C(=O)O (stereo not drawn)
range 2

Which Mean fluorescence intensity band matches NC(COC(=O)CCCCCCCCCCC(=O)O)C(=O)O (stereo not drawn) ?
range 3

Where would CC(OC(=O)CCCCCCC(=O)O)C(N)C(=O)O (stereo not drawn) land among the classes by reported Mean fluorescence intensity?
range 2

Category of C=CCCCCCCCCC(=O)NCCCCC(N)C(=O)O (stereo not drawn) , please.
range 3

Could you place CCCCCCCCCCCCCCCCCCCC(=O)OC(C)C(N)C(=O)O (stereo not drawn) in its proper category? Many thanks.
range 2

In plain terms, what class is NC(COC(=O)CCCCCCCCCCCCCCC(=O)O)C(=O)O (stereo not drawn) ?
range 2

For the record CCCCCCCCCCC(=O)OC(C)C(N)C(=O)O (stereo not drawn) , report the class its Mean fluorescence intensity corresponds to.
range 1

Using the reported Mean fluorescence intensity, which band applies to CCCCCCCCCCCCCC(=O)OCC(O)C1OC(=O)C(O)=C1O (stereo not drawn) ?
range 1

Category of CCCCCCCCC=CCCCCCCCCCCCC(=O)OC(C)C(N)C(=O)O (stereo not drawn) , please.
range 3

Using the reported Mean fluorescence intensity, which band applies to CC/C=C\C/C=C\C/C=C\C/C=C\C/C=C\C/C=C\CCC(=O)OCC(O)C1OC(=O)C(O)=C1O (stereo not drawn) ?
range 2

Lab note: which band did CCCCC/C=C/C(=O)OCC1OC(O)C(O)C(O)C1O (stereo not drawn) land in?
range 2

Category lookup for the molecule CCCCCCCC(=O)NCCCCC(N)C(=O)O (stereo not drawn)
range 1

Assign a bin to NC(COC(=O)CCCCCCCCCCCCCCCCC(=O)O)C(=O)O (stereo not drawn)
range 3

Hey, which category is CCCCCCC=CCCCCCCCC(=O)OCC1OC(O)C(O)C(O)C1O (stereo not drawn) in, do you know?
range 3

Band for the recorded Mean fluorescence intensity of CCCCCCCCCCCCCCCC(=O)OC(C)C(N)C(=O)O (stereo not drawn) ?
range 3

###

Tested on: human pancreatic β-cells
measurement.notes: Insulin secretion from human islet β cells (ELISA of supernatant)
Format: cell-based
test.context: 100 μM, 6 h
Would you kindly list Insulin for each of these molecules?
State the answer as a number, implicitly in ng/mL.

The measured Insulin associated with CCCCCCCCCCCCCCCCCCCC(=O)OC(C)C(N)C(=O)O (stereo not drawn) reads 1.42

Reported Insulin of CCCCCC(=O)OC(C)C(N)C(=O)O (stereo not drawn) : 1.46

Recorded Insulin (molecule NC(CCCCNC(=O)CCCCCCCCCCCCCCCCCCC(=O)O)C(=O)O (stereo not drawn) ): 1.48

Consider CCCC(=O)OCC(N)C(=O)O (stereo not drawn) . Its measured Insulin is 1.51

Consider CCCCCCCCCC(=O)NCCCCC(N)C(=O)O (stereo not drawn) . Its measured Insulin is 1.63

The molecule listed as CCCCCCCCCCCCCCCCCC(=O)OCC(N)C(=O)O (stereo not drawn) shows Insulin equal to 1.41
